Origin of the recorded values: ChEMBL document CHEMBL4406804

Protocol: Half-life in rat at 0.5 mg/kg, iv
Format: ADME, organism-based
Condition Description: in vivo
Measured Endpoint: half-life (h)
// return numeric value only (unit: h, not printed)

## Task Tell me the measured half-life of `CC#C[C@]1(O)CC[C@H]2[C@@H]3CCC4=CC(=O)CC[C@]4(C)[C@H]3[C@@H](c3ccc(N(C)C)cc3)C[C@@]21C` , please.
## Result 1.8

###

Subject Of Test: Androgen receptor (Homo sapiens, UniProt P10275)
Sequence (P10275 whole entry): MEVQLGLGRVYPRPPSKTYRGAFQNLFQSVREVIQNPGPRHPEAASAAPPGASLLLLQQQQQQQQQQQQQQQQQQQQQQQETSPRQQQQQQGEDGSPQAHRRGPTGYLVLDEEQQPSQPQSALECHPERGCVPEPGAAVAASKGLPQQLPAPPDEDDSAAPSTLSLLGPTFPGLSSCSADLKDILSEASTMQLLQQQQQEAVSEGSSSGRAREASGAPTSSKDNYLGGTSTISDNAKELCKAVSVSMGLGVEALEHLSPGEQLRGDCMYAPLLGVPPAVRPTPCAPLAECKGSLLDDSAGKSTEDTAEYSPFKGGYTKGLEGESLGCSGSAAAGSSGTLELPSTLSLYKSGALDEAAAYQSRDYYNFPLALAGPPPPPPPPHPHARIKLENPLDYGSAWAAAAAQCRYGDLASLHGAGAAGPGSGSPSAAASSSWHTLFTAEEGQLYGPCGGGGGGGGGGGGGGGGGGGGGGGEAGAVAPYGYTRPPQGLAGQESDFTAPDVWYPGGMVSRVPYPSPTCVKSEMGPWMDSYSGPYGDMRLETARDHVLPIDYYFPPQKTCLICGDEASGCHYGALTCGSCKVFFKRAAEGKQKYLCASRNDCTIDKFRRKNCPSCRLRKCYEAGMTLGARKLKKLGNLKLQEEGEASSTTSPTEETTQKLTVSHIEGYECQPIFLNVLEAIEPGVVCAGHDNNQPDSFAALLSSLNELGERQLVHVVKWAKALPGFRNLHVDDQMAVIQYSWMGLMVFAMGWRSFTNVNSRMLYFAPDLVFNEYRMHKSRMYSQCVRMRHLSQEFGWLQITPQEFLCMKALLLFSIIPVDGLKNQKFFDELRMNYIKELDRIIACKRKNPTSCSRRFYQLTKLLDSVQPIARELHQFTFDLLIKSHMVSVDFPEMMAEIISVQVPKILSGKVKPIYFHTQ
Protocol: Agonist activity at human androgen receptor in human LNCAP cells harboring firefly luciferase gene after 20 hrs by One-Glo luciferase reporter gene assay
pEC50: −log10 of the molar value.
Field: pEC50. Provide a value for each of the molecules that follow.

## Task pEC50 lookup needed for `CC#C[C@]1(O)CC[C@H]2[C@@H]3CCC4=CC(=O)CC[C@]4(C)[C@H]3[C@@H](c3ccc(N(C)C)cc3)C[C@@]21C` , thanks.
## Result < 5.60

## Task Reported pEC50, molecule `CCN(CC)c1ccc([C@H]2C[C@@]3(C)[C@@H](CC[C@@]3(O)C#CC(C)(C)C)[C@@H]3CCC4=CC(=O)CC[C@@H]4[C@H]32)cc1` : ____
## Result < 5.60

## Task Name the recorded pEC50 for `CC#C[C@]1(O)CC[C@H]2[C@@H]3CCC4=CC(=O)CC[C@]4(C)[C@H]3[C@@H](c3ccc(-n4cccc4)cc3)C[C@@]21C` .
## Result < 5.60
